Where do these numbers come from? They come from ChEMBL document CHEMBL1153576.

tested on: Haemophilus influenzae; test: Antibacterial activity against Haemophilus influenzae ATCC 49247 after 16 to 22 hrs by broth dilution method; assay type: functional
The following compounds are shown together with reported MIC values.
OUTCOME MEASURE: MIC (µg/mL)

[[record]]
compound = "CC[C@H]1OC(=O)[C@H](C)[C@@H](O[C@H]2C[C@@](C)(OC)[C@@H](O)[C@H](C)O2)[C@H](C)[C@@H](O[C@@H]2O[C@H](C)C[C@H](N(C)C)[C@H]2O)[C@](C)(O)C[C@@H](C)CN(CCCN(CCC#N)C(=O)NCc2ccccc2)[C@H](C)[C@@H](O)[C@]1(C)O"
observed_value = 4

[[record]]
compound = "CC[C@H]1OC(=O)[C@H](C)[C@@H](O[C@H]2C[C@@](C)(OC)[C@@H](O)[C@H](C)O2)[C@H](C)[C@@H](O[C@@H]2O[C@H](C)C[C@H](N(C)C)[C@H]2O)[C@](C)(O)C[C@@H](C)CN(CCCNC(=O)NCc2ccccc2)[C@H](C)[C@@H](O)[C@]1(C)O"
observed_value = 2

[[record]]
compound = "CC[C@H]1OC(=O)[C@H](C)[C@@H](O[C@H]2C[C@@](C)(OC)[C@@H](O)[C@H](C)O2)[C@H](C)[C@@H](O[C@@H]2O[C@H](C)C[C@H](N(C)C)[C@H]2O)[C@](C)(O)C[C@@H](C)CN(CCCNC(=O)NC(C)c2cccc3ccccc23)[C@H](C)[C@@H](O)[C@]1(C)O (some centres not stated)"
observed_value = 2

[[record]]
compound = "CC[C@H]1OC(=O)[C@H](C)[C@@H](O[C@H]2C[C@@](C)(OC)[C@@H](O)[C@H](C)O2)[C@H](C)[C@@H](O[C@@H]2O[C@H](C)C[C@H](N(C)C)[C@H]2O)[C@](C)(O)C[C@@H](C)CN(CCCN(CCC#N)C(=S)Nc2cccc3ccccc23)[C@H](C)[C@@H](O)[C@]1(C)O"
observed_value = 8

[[record]]
compound = "CC[C@H]1OC(=O)[C@H](C)[C@@H](O[C@H]2C[C@@](C)(OC)[C@@H](O)[C@H](C)O2)[C@H](C)[C@@H](O[C@@H]2O[C@H](C)C[C@H](N(C)C)[C@H]2O)[C@](C)(O)C[C@@H](C)CN(CCCNC(=S)NCc2ccccc2)[C@H](C)[C@@H](O)[C@]1(C)O"
observed_value = 2

[[record]]
compound = "CC[C@H]1OC(=O)[C@H](C)[C@@H](O[C@H]2C[C@@](C)(OC)[C@@H](O)[C@H](C)O2)[C@H](C)[C@@H](O[C@@H]2O[C@H](C)C[C@H](N(C)C)[C@H]2O)[C@](C)(O)C[C@@H](C)CN(CCCN(CCC#N)C(=O)NC(C)C)[C@H](C)[C@@H](O)[C@]1(C)O"
observed_value = 4

[[record]]
compound = "CC[C@H]1OC(=O)[C@H](C)[C@@H](O[C@H]2C[C@@](C)(OC)[C@@H](O)[C@H](C)O2)[C@H](C)[C@@H](O[C@@H]2O[C@H](C)C[C@H](N(C)C)[C@H]2O)[C@](C)(O)C[C@@H](C)CN(CCCNC(=S)Nc2ccccc2)[C@H](C)[C@@H](O)[C@]1(C)O"
observed_value = 4


====

system: Staphylococcus aureus; experiment: Antibacterial activity against Staphylococcus aureus ATCC 29213 after 16 to 22 hrs by broth microdilution method; assay type: functional
List of MIC values.
OUTCOME MEASURE: MIC (µg/mL)

[[record]]
sample_smiles = "CC[C@H]1OC(=O)[C@H](C)[C@@H](O[C@H]2C[C@@](C)(OC)[C@@H](O)[C@H](C)O2)[C@H](C)[C@@H](O[C@@H]2O[C@H](C)C[C@H](N(C)C)[C@H]2O)[C@](C)(O)C[C@@H](C)CN(CCCN(CCC#N)C(=S)NCCc2ccccc2)[C@H](C)[C@@H](O)[C@]1(C)O"
outcome_measure = "MIC"
unit_of_measure = "µg/mL"
observed_value = 1

[[record]]
sample_smiles = "CC[C@H]1OC(=O)[C@H](C)[C@@H](O[C@H]2C[C@@](C)(OC)[C@@H](O)[C@H](C)O2)[C@H](C)[C@@H](O[C@@H]2O[C@H](C)C[C@H](N(C)C)[C@H]2O)[C@](C)(O)C[C@@H](C)CN(CCCNC(=O)NCCc2ccccc2)[C@H](C)[C@@H](O)[C@]1(C)O"
outcome_measure = "MIC"
unit_of_measure = "µg/mL"
observed_value = 1

[[record]]
sample_smiles = "CC[C@H]1OC(=O)[C@H](C)[C@@H](O[C@H]2C[C@@](C)(OC)[C@@H](O)[C@H](C)O2)[C@H](C)[C@@H](O[C@@H]2O[C@H](C)C[C@H](N(C)C)[C@H]2O)[C@](C)(O)C[C@@H](C)CN(CCCN(CCC#N)C(=O)NCc2ccccc2)[C@H](C)[C@@H](O)[C@]1(C)O"
outcome_measure = "MIC"
unit_of_measure = "µg/mL"
observed_value = 2

[[record]]
sample_smiles = "CC[C@H]1OC(=O)[C@H](C)[C@@H](O[C@H]2C[C@@](C)(OC)[C@@H](O)[C@H](C)O2)[C@H](C)[C@@H](O[C@@H]2O[C@H](C)C[C@H](N(C)C)[C@H]2O)[C@](C)(O)C[C@@H](C)CN(CCCN(CCC#N)C(=O)NCCc2ccccc2)[C@H](C)[C@@H](O)[C@]1(C)O"
outcome_measure = "MIC"
unit_of_measure = "µg/mL"
observed_value = 4

